I'd be grateful if you could share measured EC50 for these entries.
Target: human Kv3.1 channels (hKv3.1) (Homo sapiens)
Sequence (P48547 1-501 limits assumed): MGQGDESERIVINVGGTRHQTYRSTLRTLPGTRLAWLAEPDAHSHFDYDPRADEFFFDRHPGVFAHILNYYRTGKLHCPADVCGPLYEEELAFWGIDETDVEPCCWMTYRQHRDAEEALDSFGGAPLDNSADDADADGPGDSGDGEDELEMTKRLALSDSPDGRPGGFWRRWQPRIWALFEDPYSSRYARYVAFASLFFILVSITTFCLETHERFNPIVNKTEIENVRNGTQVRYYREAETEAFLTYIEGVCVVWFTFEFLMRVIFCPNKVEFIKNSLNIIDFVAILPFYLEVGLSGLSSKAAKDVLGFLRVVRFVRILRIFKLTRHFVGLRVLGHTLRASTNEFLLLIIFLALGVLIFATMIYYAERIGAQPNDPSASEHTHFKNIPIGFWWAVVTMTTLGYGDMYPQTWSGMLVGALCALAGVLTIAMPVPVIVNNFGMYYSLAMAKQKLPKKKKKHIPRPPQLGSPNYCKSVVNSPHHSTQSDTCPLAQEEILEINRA
Assay: Measurement of Kv3 channel modulation: Kv3.1 assay (IonWorks Quattro whole-cell electrophysiology)
Assay type: cell-based
Conditions: Table 2, Example compounds; rounded to one decimal place; some compounds with two data sets (n given in cell); read-out: Kv3.1 pEC50 (converted)
Give bare numbers, in nM.

SMILES_ENTRY | EC50 (nM)
Cc1ccc(Oc2ccc(-n3c(=O)[nH]c4cncnc43)cn2)c2c1OCC21CC1 | 158

For each of the compounds below, state EC50.
1. N#Cc1ccc(Oc2ccc(-n3c(=O)[nH]c4cccnc43)cn2)cc1OC(F)(F)F
2. Cn1cc2[nH]c(=O)n(-c3ccc(Oc4cccc5c4C4(CC4)CO5)nc3)c2n1
3. O=c1[nH]c2cccnc2n1-c1cnc(Oc2cccc3c2C2(CC2)CO3)nc1

-- reply
1000
251
200
